# MEASUREMENT TARGET: T1, extracellular domain of mouse IL23R (mIL23R ECD) (mouse, UniProt Q8K4B4 24-374)
# T1 construct: also called mIL-23 ECD antigen
# T1 sequence: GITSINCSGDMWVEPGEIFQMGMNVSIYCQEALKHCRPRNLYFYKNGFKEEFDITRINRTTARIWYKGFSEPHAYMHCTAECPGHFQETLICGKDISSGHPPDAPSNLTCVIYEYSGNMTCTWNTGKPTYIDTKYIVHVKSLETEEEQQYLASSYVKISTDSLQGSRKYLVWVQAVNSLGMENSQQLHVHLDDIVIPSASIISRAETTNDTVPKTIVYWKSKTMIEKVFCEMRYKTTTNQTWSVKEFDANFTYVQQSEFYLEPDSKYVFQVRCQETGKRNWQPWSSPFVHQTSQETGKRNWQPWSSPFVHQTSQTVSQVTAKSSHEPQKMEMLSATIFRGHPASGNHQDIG
# ASSAY OVERVIEW: periplasmic extract ELISA (PE-ELISA), 96-well plate, colorimetric
READOUT TYPE: binding result

mIL23R VHH17 (VHH) VHH: QVQLQESGGGSVQAGGSLRLSCAASGFTFRLTAMRWVRQAPGKGLEWVSGIDSRGSTIYADSVKGRFTISKDNAKNTLYLQLNSLKTEDTAMYYCAQGVYGDTYSGSQGTQVTVSS
binds
mIL23R VHH36 (VHH) VHH: QVQLQESGGGSVQAGGSLRLSCAASGDTYSSCTMGWYRQAPGKERDLVSMVFSDGSTFYADSVKGRFTFSQENAKNTVYLQMNSLKPEDTAMYYCGCATLGSRTIWGQGTQVTVSS
binds

The origin of these recorded values is patent US12012457.
